In what follows, each item is paired with its MIC for E. coli 851ML308-225.
Write the answer as a number in µg/mL, unit excluded.

Example entries and their recorded answers appear below.
[[record]]
molecule = "CN(C)[C@@H]1C(O)=C(C(N)=O)C(=O)[C@@]2(O)C(O)=C3C(=O)c4c(O)ccc(-n5ccc(C=O)c5)c4C[C@H]3C[C@@H]12 [Compound B]"
target_desc = "E. coli 851ML308-225"
quantity_measured = "MIC"
value_measured = 0.5

[[record]]
molecule = "CN(C)c1ccc(O)c2c1C[C@H]1C[C@H]3[C@H](N(C)C)C(=O)C(C(N)=O)=C(O)[C@@]3(O)C(=O)C1=C2O [MINO, Minocyline]"
target_desc = "E. coli 851ML308-225"
quantity_measured = "MIC"
value_measured = 0.25

[[record]]
molecule = "CN(C)CC(=O)Nc1cc(-n2ccc(C=O)c2)c2c(c1O)C(=O)C1=C(O)[C@]3(O)C(=O)C(C(N)=O)=C(O)[C@@H](N(C)C)[C@@H]3C[C@@H]1C2 [Compound C]"
target_desc = "E. coli 851ML308-225"
quantity_measured = "MIC"
value_measured = 0.03


Attention now shifts to the item below.
Any idea what MIC was measured for CN(C)[C@@H]1C(O)=C(C(N)=O)C(=O)[C@@]2(O)C(O)=C3C(=O)c4c(O)ccc(-n5ccc(C#N)c5)c4C[C@H]3C[C@@H]12 [Compound A] ?
0.5

----------
Tested on: P. aeruginosa 3808
Test Details: MIC, broth microdilution growth inhibition
Assay type: cell-based
Assay Conditions: Mueller-Hinton broth, 37° C., 18 h, unit assumed
Quantity Measured: MIC (µg/mL)
Write the answer as a number in µg/mL, unit excluded.

Example entries and their recorded answers appear below.
[[record]]
molecular_string = "CN(C)c1cc(NC(=O)CNC(C)(C)C)c(O)c2c1C[C@H]1C[C@H]3[C@H](N(C)C)C(O)=C(C(N)=O)C(=O)[C@@]3(O)C(O)=C1C2=O"
quantity_measured = "MIC"
value_measured = 32

[[record]]
molecular_string = "CN(C)CC(=O)Nc1cc(-n2ccc(C=O)c2)c2c(c1O)C(=O)C1=C(O)[C@]3(O)C(=O)C(C(N)=O)=C(O)[C@@H](N(C)C)[C@@H]3C[C@@H]1C2"
quantity_measured = "MIC"
value_measured = 32


Attention now shifts to the item below.
Notebook: pull reported MIC for P. aeruginosa 3808, entry CN(C)c1ccc(O)c2c1C[C@H]1C[C@H]3[C@H](N(C)C)C(=O)C(C(N)=O)=C(O)[C@@]3(O)C(=O)C1=C2O
16

----------
In what follows, each item is paired with its MIC for K. Pneumoniae 3226.
Write the answer as a number in µg/mL, unit excluded.

[[record]]
molecular_string = "CN(C)c1cc(NC(=O)CNC(C)(C)C)c(O)c2c1C[C@H]1C[C@H]3[C@H](N(C)C)C(O)=C(C(N)=O)C(=O)[C@@]3(O)C(O)=C1C2=O"
target_desc = "K. Pneumoniae 3226"
quantity_measured = "MIC"
value_measured = 2

[[record]]
molecular_string = "CN(C)CC(=O)Nc1cc(-n2ccc(C=O)c2)c2c(c1O)C(=O)C1=C(O)[C@]3(O)C(=O)C(C(N)=O)=C(O)[C@@H](N(C)C)[C@@H]3C[C@@H]1C2"
target_desc = "K. Pneumoniae 3226"
quantity_measured = "MIC"
value_measured = 125


Attention now shifts to the item below.
Any idea what MIC was measured for CN(C)c1ccc(O)c2c1C[C@H]1C[C@H]3[C@H](N(C)C)C(=O)C(C(N)=O)=C(O)[C@@]3(O)C(=O)C1=C2O ?
32
